experiment: AUC in rat at 2 mg/kg, po; format: ADME, organism-based; parameters: dose 2 mg/kg, route oral; conditions: plasma
PARAMETER MEASURED: AUC
Number plus unit, in that order.

Q) AUC lookup needed for `CCS(=O)(=O)CCN(C(=O)Cc1ccc(F)c(C(F)(F)F)c1)[C@H](C)c1nc(C2CC2)c(C(F)F)n1-c1ccc(C#N)cc1` , thanks.
A) 456 ng·h/mL

Q) AUC lookup needed for `CCS(=O)(=O)CCN(C(=O)Cc1ccc(F)c(C(F)(F)F)c1)[C@H](C)c1nc(C2CC2)c(Cl)n1-c1ccc(C#N)cc1` , thanks.
A) 225 ng·h/mL

Q) AUC lookup needed for `CCS(=O)(=O)CCN(C(=O)Cc1ccc(F)c(C(F)(F)F)c1)[C@H](C)c1nc(C2CC2)cn1-c1ccc(C#N)cc1` , thanks.
A) 95 ng·h/mL

Q) AUC lookup needed for `CCS(=O)(=O)CCN(C(=O)Cc1ccc(F)c(C(F)(F)F)c1)[C@H](C)c1nc(-c2ccccc2)cn1-c1ccc(C#N)cc1` , thanks.
A) 11 ng·h/mL

* * *

assay: Oral bioavailability in rat at 2 mg/kg; type: ADME, organism-based; details: in vivo
PARAMETER MEASURED: bioavailability (%)
Give the number; % is assumed, so skip it.

[
  {
    "SMI": "CCS(=O)(=O)CCN(C(=O)Cc1ccc(F)c(C(F)(F)F)c1)[C@H](C)c1nc(C2CC2)c(C(F)F)n1-c1ccc(C#N)cc1",
    "PARAMETER MEASURED": "bioavailability",
    "ASSAY RESULT": 48
  },
  {
    "SMI": "CCS(=O)(=O)CCN(C(=O)Cc1ccc(F)c(C(F)(F)F)c1)[C@H](C)c1nc(C2CC2)c(Cl)n1-c1ccc(C#N)cc1",
    "PARAMETER MEASURED": "bioavailability",
    "ASSAY RESULT": 26
  },
  {
    "SMI": "CCS(=O)(=O)CCN(C(=O)Cc1ccc(F)c(C(F)(F)F)c1)[C@H](C)c1nc(-c2ccccc2)cn1-c1ccc(C#N)cc1",
    "PARAMETER MEASURED": "bioavailability",
    "ASSAY RESULT": 3
  }
]

Next item in the queue.
Q) bioavailability lookup needed for `CCS(=O)(=O)CCN(C(=O)Cc1ccc(F)c(C(F)(F)F)c1)[C@H](C)c1nc(C2CC2)cn1-c1ccc(C#N)cc1` , thanks.
A) 16

* * *

test system: Liver microsomes; assay: Metabolic stability in human liver microsomes assessed as decrease in glutathione conjugate formation; assay type: ADME, Microsome; parameters: scale not given: the % may be the effect or the level left
Overview of reported Activity across a group of compounds:
Give the number; % is assumed, so skip it.

Worked cases, Activity given:
[
  {
    "SMI": "CCS(=O)(=O)CCN(C(=O)Cc1ccc(F)c(C(F)(F)F)c1)[C@H](C)c1nc(C2CC2)c(Cl)n1-c1ccc(C#N)cc1",
    "UNIT OF MEASUREMENT": "%",
    "Activity": 0
  },
  {
    "SMI": "CCS(=O)(=O)CCN(C(=O)Cc1ccc(F)c(C(F)(F)F)c1)[C@H](C)c1nc(C2CC2)c(C#N)n1-c1ccc(C#N)cc1",
    "UNIT OF MEASUREMENT": "%",
    "Activity": 0
  },
  {
    "SMI": "CCS(=O)(=O)CCN(C(=O)Cc1ccc(F)c(C(F)(F)F)c1)[C@H](C)c1nc(C2CC2)c(CO)n1-c1ccc(C#N)cc1",
    "UNIT OF MEASUREMENT": "%",
    "Activity": 1
  },
  {
    "SMI": "CCc1c(C2CC2)nc([C@@H](C)N(CCS(=O)(=O)CC)C(=O)Cc2ccc(F)c(C(F)(F)F)c2)n1-c1ccc(C#N)cc1",
    "UNIT OF MEASUREMENT": "%",
    "Activity": 14
  }
]

Q) Activity lookup needed for `CCS(=O)(=O)CCN(C(=O)Cc1ccc(F)c(C(F)(F)F)c1)[C@H](C)c1nc(C2CC2)cn1-c1ccc(C#N)cc1` , thanks.
A) 44

Q) Activity lookup needed for `C=Cc1c(C2CC2)nc([C@@H](C)N(CCS(=O)(=O)CC)C(=O)Cc2ccc(F)c(C(F)(F)F)c2)n1-c1ccc(C#N)cc1` , thanks.
A) 8

Q) Activity lookup needed for `CCS(=O)(=O)CCN(C(=O)Cc1ccc(F)c(C(F)(F)F)c1)[C@H](C)c1nc(C2CC2)c(C(F)F)n1-c1ccc(C#N)cc1` , thanks.
A) 0

Q) Activity lookup needed for `CCS(=O)(=O)CCN(C(=O)Cc1ccc(F)c(C(F)(F)F)c1)[C@H](C)c1nc(C2CC2)c(C(F)(F)F)n1-c1ccc(C#N)cc1` , thanks.
A) 0

* * *

Overview of reported pIC50 across a group of compounds:
target: C-X-C chemokine receptor type 3 (Homo sapiens); experiment: Displacement of [125I]IP10 from human recombinant CXCR3 receptor expressed in IL2-activated human PBMC in presence of plasma
Sequence (P49682 whole entry): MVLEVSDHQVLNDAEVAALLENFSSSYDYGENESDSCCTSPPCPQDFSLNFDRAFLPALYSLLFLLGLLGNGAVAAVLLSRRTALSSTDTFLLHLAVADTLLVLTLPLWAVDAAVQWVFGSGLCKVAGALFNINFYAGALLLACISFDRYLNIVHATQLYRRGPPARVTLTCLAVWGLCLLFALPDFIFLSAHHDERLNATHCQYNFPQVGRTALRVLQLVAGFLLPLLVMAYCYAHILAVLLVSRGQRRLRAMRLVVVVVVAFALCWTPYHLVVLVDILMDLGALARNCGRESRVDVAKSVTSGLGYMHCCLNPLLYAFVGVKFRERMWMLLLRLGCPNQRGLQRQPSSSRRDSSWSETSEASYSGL
Worth noting: pIC50 values are minus log10 of concentrations stated in mol/L.

Worked cases, pIC50 given:
[
  {
    "SMI": "CCS(=O)(=O)CCN(C(=O)Cc1ccc(F)c(C(F)(F)F)c1)[C@H](C)c1nc(C2CC2)c(Cl)n1-c1ccc(C#N)cc1",
    "pIC50": 7.62
  },
  {
    "SMI": "CCS(=O)(=O)CCN(C(=O)Cc1ccc(F)c(C(F)(F)F)c1)[C@H](C)c1nc(-c2ccccn2)cn1-c1ccc(C#N)cc1",
    "pIC50": 7.37
  }
]

Q) Identify the measured pIC50 of `CCOc1ccc(-n2cc(-c3ccccc3)nc2[C@@H](C)N(Cc2cccnc2)C(=O)Cc2ccc(F)c(C(F)(F)F)c2)cc1` for C-X-C chemokine receptor type 3 (Homo sapiens).
A) 7.04

Q) Identify the measured pIC50 of `CCS(=O)(=O)CCN(C(=O)Cc1ccc(F)c(C(F)(F)F)c1)[C@H](C)c1nc(-c2ccccc2)cn1-c1ccc(C#N)cc1` for C-X-C chemokine receptor type 3 (Homo sapiens).
A) 7.85

Q) Identify the measured pIC50 of `CCOc1ccc(-n2cc(-c3ccccc3)nc2[C@@H](C)N(CCS(=O)(=O)CC)C(=O)Cc2ccc(F)c(C(F)(F)F)c2)cc1` for C-X-C chemokine receptor type 3 (Homo sapiens).
A) 8.35

Q) Identify the measured pIC50 of `CCOc1ccc(-n2cc(-c3ccccc3)nc2[C@@H](C)N(CCS(=O)(=O)CC)C(=O)Cn2cnc(-c3ccccc3)c2)cc1` for C-X-C chemokine receptor type 3 (Homo sapiens).
A) 7.62

Q) Identify the measured pIC50 of `CCS(=O)(=O)CCN(C(=O)Cc1ccc(F)c(C(F)(F)F)c1)[C@H](C)c1nc(C2CC2)c(C(F)F)n1-c1ccc(C#N)cc1` for C-X-C chemokine receptor type 3 (Homo sapiens).
A) 7.74

Q) Identify the measured pIC50 of `C=Cc1c(C2CC2)nc([C@@H](C)N(CCS(=O)(=O)CC)C(=O)Cc2ccc(F)c(C(F)(F)F)c2)n1-c1ccc(C#N)cc1` for C-X-C chemokine receptor type 3 (Homo sapiens).
A) 7.66

Q) Identify the measured pIC50 of `CCOc1ccc(-n2cc(-c3ccccc3)nc2[C@@H](C)N(CCCS(=O)(=O)CC)C(=O)Cc2ccc(F)c(C(F)(F)F)c2)cc1` for C-X-C chemokine receptor type 3 (Homo sapiens).
A) 7.74

* * *

Overview of reported AUC across a group of compounds:
tested on: Rattus norvegicus; test: AUC in rat at 0.5 mg/kg, iv; assay type: ADME, organism-based, Plasma; parameters: dose 0.5 mg/kg, route intravenous; settings: in vivo
Give the number; ng·h/mL is assumed, so skip it.

[
  {
    "SMI": "CCS(=O)(=O)CCN(C(=O)Cc1ccc(F)c(C(F)(F)F)c1)[C@H](C)c1nc(-c2ccccc2)cn1-c1ccc(C#N)cc1",
    "EXPERIMENTAL SYSTEM": "Rattus norvegicus",
    "AUC, ng·h/mL": 92
  },
  {
    "SMI": "CCS(=O)(=O)CCN(C(=O)Cc1ccc(F)c(C(F)(F)F)c1)[C@H](C)c1nc(C2CC2)cn1-c1ccc(C#N)cc1",
    "EXPERIMENTAL SYSTEM": "Rattus norvegicus",
    "AUC, ng·h/mL": 149
  }
]

Next item in the queue.
Q) AUC lookup needed for `CCS(=O)(=O)CCN(C(=O)Cc1ccc(F)c(C(F)(F)F)c1)[C@H](C)c1nc(C2CC2)c(C(F)F)n1-c1ccc(C#N)cc1` , thanks.
A) 237

* * *

experiment: Solubility at pH 7.4; assay type: physicochemical; settings: buffer
Overview of reported solubility across a group of compounds:
Number plus unit, in that order.

[
  {
    "SMI": "CCS(=O)(=O)CCN(C(=O)Cc1ccc(F)c(C(F)(F)F)c1)[C@H](C)c1nc(-c2ccccc2)cn1-c1ccc(C#N)cc1",
    "ASSAY RESULT": "0.5 µg/mL"
  }
]

Q) solubility lookup needed for `CCS(=O)(=O)CCN(C(=O)Cc1ccc(F)c(C(F)(F)F)c1)[C@H](C)c1nc(C2CC2)cn1-c1ccc(C#N)cc1` , thanks.
A) 32 µg/mL
